observedProperty: Ki (nM)
The reply should contain only the number, in nM.

Value (Ki, Serine/threonine-protein kinase MRCK alpha (Homo sapiens)) for record CC(C)CC(C/C=C1/CC(CO)(COC(=O)C(C)(C)C)OC1=O)CC(C)C (stereo not drawn) [DAG-lactone (HK-434)] = 1030

Value (Ki, Serine/threonine-protein kinase MRCK alpha (Homo sapiens)) for record CCCCCCCC(=O)OC[C@H](CO)OC(=O)CCCCCCC = 2820

Value (Ki, Serine/threonine-protein kinase MRCK alpha (Homo sapiens)) for record CN(C)c1ccc(/C=C2/CC(CO)(COC(=O)c3ccc([N+](=O)[O-])cc3)OC2=O)cc1 (stereo not drawn) [DAG-lactone (130C045)] = 22600

----------
Exercise: state measured pKi for each of the compounds provided.
- experimentalSystem: Serine/threonine-protein kinase MRCK beta (Homo sapiens)
- Sequence (Q9Y5S2 whole entry): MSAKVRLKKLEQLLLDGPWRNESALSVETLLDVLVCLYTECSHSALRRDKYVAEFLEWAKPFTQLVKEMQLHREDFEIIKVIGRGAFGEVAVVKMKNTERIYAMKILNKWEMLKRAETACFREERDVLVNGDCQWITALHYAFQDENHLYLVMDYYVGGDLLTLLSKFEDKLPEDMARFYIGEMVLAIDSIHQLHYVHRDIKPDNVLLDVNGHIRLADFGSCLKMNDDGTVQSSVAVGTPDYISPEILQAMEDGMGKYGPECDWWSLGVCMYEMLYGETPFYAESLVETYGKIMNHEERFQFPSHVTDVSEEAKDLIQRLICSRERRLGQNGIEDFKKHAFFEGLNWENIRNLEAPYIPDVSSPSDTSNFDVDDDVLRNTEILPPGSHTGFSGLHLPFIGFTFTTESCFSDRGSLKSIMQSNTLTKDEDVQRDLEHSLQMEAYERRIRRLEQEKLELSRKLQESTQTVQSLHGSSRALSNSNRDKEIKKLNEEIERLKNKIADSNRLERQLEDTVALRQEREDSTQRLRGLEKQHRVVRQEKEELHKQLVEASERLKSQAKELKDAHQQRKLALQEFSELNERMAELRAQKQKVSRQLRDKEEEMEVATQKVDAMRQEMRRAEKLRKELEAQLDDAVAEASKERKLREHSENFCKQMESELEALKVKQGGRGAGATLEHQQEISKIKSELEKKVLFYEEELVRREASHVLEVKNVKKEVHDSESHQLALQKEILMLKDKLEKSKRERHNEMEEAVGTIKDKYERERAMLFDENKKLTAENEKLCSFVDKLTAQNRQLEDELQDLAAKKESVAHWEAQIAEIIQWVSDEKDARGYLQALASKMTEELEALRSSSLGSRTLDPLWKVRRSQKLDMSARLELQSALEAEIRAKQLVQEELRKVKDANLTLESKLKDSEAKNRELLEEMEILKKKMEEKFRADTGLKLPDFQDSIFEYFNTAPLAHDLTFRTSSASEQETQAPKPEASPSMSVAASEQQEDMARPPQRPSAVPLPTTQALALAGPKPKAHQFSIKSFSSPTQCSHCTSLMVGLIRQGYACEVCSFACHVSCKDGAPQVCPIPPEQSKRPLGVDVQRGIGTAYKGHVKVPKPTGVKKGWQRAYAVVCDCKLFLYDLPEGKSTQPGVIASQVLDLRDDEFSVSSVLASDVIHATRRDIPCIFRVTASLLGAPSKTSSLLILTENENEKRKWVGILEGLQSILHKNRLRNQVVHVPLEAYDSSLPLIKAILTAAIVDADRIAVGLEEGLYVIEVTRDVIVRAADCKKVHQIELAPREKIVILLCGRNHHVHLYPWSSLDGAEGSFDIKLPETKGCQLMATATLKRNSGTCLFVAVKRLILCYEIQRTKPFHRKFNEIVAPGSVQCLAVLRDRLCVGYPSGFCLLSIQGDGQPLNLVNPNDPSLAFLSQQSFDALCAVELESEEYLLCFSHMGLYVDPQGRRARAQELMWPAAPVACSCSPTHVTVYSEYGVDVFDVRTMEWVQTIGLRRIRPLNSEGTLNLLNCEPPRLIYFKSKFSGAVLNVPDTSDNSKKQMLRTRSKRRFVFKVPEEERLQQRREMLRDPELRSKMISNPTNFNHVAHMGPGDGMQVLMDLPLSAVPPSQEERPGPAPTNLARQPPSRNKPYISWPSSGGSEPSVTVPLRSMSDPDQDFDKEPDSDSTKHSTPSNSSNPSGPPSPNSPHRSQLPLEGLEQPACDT
// pKi: -log10(molar conc.)

Value (pKi, Serine/threonine-protein kinase MRCK beta (Homo sapiens)) for record CC(C)CC(C/C=C1/CC(CO)(COC(=O)C(C)(C)C)OC1=O)CC(C)C (configuration not stated) = 5.97

Value (pKi, Serine/threonine-protein kinase MRCK beta (Homo sapiens)) for record CN(C)c1ccc(/C=C2/CC(CO)(COC(=O)c3ccc([N+](=O)[O-])cc3)OC2=O)cc1 (configuration not stated) = 4.59
